experiment: solvent given as SMILES; conditions: in O=CN1CCOCC1
Exercise: state measured solvation free energy, 298 K for each of the compounds provided.
Give bare numbers, in kcal/mol.

CC1CCCC1; -2.47
Cc1cccc(C)c1; -5.03
CCCCC=O; -4.49
C=CCCCCCC; -3.4

In: Form field: reported solvation free energy, 298 K of CC(C)O
Out: -4.53

* * *

assay: solvent given as SMILES; details: in CCCCCCCCCCCCCCCC
MEASURED METRIC: solvation free energy, 298 K (kcal/mol)
Answers are plain numbers, in kcal/mol.

O; -0.42

Look at each compound and report its solvation free energy, 298 K.
1. CCCCCl
2. CCOC(=O)CC
3. CCCCCCCCO
4. CC(=O)OCCC(C)C
5. CCN
6. C=CCCCC
7. Cc1cccc(C)c1
8. CC(C)O

Out:
[-3.68, -3.91, -6.17, -4.96, -2.22, -3.51, -5.27, -2.37]

Look at each compound and report its solvation free energy, 298 K.
1. CCCOC(C)=O
2. OCc1ccccc1
3. CCCc1ccccc1
4. C1COCCO1
5. CCCCCCOC(C)=O
6. O=C1CCCC1
7. Nc1ccccc1

Out:
[-3.9, -5.74, -5.76, -3.81, -5.94, -4.22, -5.36]

Look at each compound and report its solvation free energy, 298 K.
1. CCC(C)(C)C
2. CCOC=O

Out:
-3.18
-2.55

Look at each compound and report its solvation free energy, 298 K.
1. CC(C)COCC(C)C
2. CCCCN

Out:
1: -4.72; 2: -3.5

In: Form field: reported solvation free energy, 298 K of CCC#N
Out: -2.64
